The following compounds have recorded Ki on Substance-K receptor (Homo sapiens).
Sequence (P21452 whole entry): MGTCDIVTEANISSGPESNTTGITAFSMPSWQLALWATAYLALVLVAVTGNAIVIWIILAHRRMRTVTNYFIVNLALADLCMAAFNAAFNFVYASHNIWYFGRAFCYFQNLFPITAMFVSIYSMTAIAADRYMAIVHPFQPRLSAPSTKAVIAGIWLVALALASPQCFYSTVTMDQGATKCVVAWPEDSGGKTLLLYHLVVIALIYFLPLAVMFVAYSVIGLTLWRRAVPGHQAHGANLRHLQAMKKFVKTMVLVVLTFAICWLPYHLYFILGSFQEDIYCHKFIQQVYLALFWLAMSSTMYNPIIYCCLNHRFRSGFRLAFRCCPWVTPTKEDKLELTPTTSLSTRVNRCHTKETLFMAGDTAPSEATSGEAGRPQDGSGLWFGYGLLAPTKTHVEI
parameter: Ki (nM)

1. O=C(c1ccccc1C(=O)N(CCCN1CCSCC1)CCc1c[nH]c2ccccc12)N(CCCN1CCSCC1)CCc1c[nH]c2ccccc12
2. CN(CCc1c[nH]c2ccccc12)C(=O)c1ccccc1C(=O)N(CCCN1CCSCC1)CCc1c[nH]c2ccccc12
3. O=C(c1nccnc1C(=O)N(CCCN1CCOCC1)CCc1c[nH]c2ccccc12)N(CCCN1CCOCC1)CCc1c[nH]c2ccccc12
Put these in order: smallest Ki first, largest last. // rank by listing labels in the order requested
1, 2, 3

src = ChEMBL document CHEMBL1135952
